The measurements presented in this section are drawn from patent US9249127B2.

Molecular target: UniProt:P08913
Sequence (P08913 1-465): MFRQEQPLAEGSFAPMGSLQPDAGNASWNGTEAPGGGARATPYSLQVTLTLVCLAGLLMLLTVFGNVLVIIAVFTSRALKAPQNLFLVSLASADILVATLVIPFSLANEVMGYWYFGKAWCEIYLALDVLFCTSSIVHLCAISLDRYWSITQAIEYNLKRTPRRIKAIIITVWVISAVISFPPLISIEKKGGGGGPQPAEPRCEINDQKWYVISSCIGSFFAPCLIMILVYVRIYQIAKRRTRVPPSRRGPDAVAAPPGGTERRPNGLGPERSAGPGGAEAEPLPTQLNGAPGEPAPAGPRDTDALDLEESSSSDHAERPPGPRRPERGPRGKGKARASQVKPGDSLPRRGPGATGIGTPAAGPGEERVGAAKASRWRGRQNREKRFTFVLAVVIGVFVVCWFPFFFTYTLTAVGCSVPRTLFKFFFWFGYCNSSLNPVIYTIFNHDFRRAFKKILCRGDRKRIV
Test: Alpha2A agonistic activity in vitro
Format: cell-based
Conditions: in vitro

molecule | Alpha2A Intrinsic Activity
Cc1cccc2c1CC(C)SC2C1=NCCN1 (stereo not drawn) [Example 62] | 0.77
C=Cc1cccc2c1CCOC2C1=NCCN1 (stereo not drawn) [Example 7] | 0.81
Cc1cccc2c1CCOC2(C)C1=NCCN1 (single isomer, unassigned) [Example 22] | 0.33
